Overview of recorded self-cleavage for various variants
B1: LINE1-full (parent)
chain: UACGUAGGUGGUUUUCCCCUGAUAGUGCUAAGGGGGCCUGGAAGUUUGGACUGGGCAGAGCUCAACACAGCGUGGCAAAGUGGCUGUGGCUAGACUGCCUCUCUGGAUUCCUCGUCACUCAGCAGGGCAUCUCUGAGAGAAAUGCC

# Variants of: B1
# assay-procedure: self-cleavage, relative activity (ratio to wild type); higher = more cleavage; in vitro, sequencing; the parent is a self-cleaving ribozyme
Just the number.

Kindly note the recorded self-cleavage for U134C A140U , which is 1.02

Kindly note the recorded self-cleavage for A2U A107G , which is 1

Kindly note the recorded self-cleavage for A42G C99U , which is 1.11

Kindly note the recorded self-cleavage for A77U U115C , which is 1.22

Kindly note the recorded self-cleavage for A22G C99U , which is 0.23

Kindly note the recorded self-cleavage for A77G C103U , which is 1.99

Kindly note the recorded self-cleavage for U119C U134G , which is 1.58

Kindly note the recorded self-cleavage for U12A U14A , which is 0.27

Kindly note the recorded self-cleavage for U39C U112C , which is 1.24

Kindly note the recorded self-cleavage for G40A U46A , which is 1.23
